study target: T1, CD27 protein (His-tagged, Sino Biological Inc. 10039-H08B1) (human, UniProt P26842 20-192)
T1 construct: bought; coated onto ELISA plates; also called human CD27; recombinant protein; not shown: His tag
T1 sequence (looked up): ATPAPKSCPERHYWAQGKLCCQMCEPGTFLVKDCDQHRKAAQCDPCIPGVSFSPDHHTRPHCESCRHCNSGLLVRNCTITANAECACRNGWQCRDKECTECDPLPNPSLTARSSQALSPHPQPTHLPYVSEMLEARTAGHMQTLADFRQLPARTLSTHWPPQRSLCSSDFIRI
assay method text: ELISA on coated His-tagged CD27; note: test concentration or dose not given here

- binder: "P018.S.06.A.H04 (antibody, V domains shown, V regions on human Ig constant parts; also called AB27_111) VH: QEKLEESGGGLVKPGGSLTLPCTASGFTLSSRYYMCWVRQAPGKGLEWIGCIYAGSLRTWYASWAKGRFTISKTSSTTVTLQMTSLTAADTATYFCARSPGVAASYPELWGPGTLVTVSS VL: AQVLTQTPSSVAAAVGGTVSISCQSSQSVGNADNLAWYQQKPGQPPNLLIYYAASLASGVPSRFKGSGSGTQFTLTISDLESDDAATYYCGGGYYNSTDTFYTFGGGTEVVVK"
  ELISA [abs. corr.]: "3.23 abs. corr."
- binder: "P018.S.03.A.D06 (antibody, V domains shown, V regions on human Ig constant parts; also called AB27_51) VH: QSLEESGGRLVTPGTPLTLTCTASGFSLSSYWMSWVRQAPGKGLEWIGYIYAGSGSAYYASWVKGRFTISKTSTTVDLKISSPTTEDTATYFCGRGNYDGYINVYDLWGPGTLVTVSS VL: DVVMTQTPSSVEAAVGGTVTIKCQASQSIGSYLAWYQKKPGQPPKLLIYAAANLAAGVPSRFKGSGSGTDFTLTINDLESADAATYYCQNNNGAYGSAYVGAFGGGTEVVVK"
  ELISA [abs. corr.]: "3.19 abs. corr."
- binder: "P018.S.02.A.D04 (antibody, V domains shown, V regions on human Ig constant parts; also called AB27_33) VH: QEQLVESGGGLVQPEGSLTLTCTASALSFYSAWICWVRQAPGKGLKWIACIYAGGSRSTYYATWATGRFTISEASSTTVTLQMTSLTAADTATYFCARSLSADTYWNLWGPGTLVTVSS VL: DVVMTQTPASVEAAVGGTVTIKCQASESISSWLAWYQQKPGQPPKLLIYRASTLESGVPSRFKGSGSGTEFTLTISDLESADAATYYCQNNGGGTSGYTFGGGTEVVVK"
  ELISA [abs. corr.]: "3.27 abs. corr."
- binder: "P018.S.03.A.E04 (antibody, V domains shown, V regions on human Ig constant parts; also called AB27_52) VH: QEQLKESGGGLVTPGGTLTLTCTVSGIDLSSYAISWVRQAPGKGLEWIGYIYVGSTTTWYASWVKGRSTISKTSSTTVDLKMTSLTTEDTATYFCARAYDSGYIGNSFYIFHPWGPGTLVTVSS VL: DIVMTQTPASVSATVGGTVTIKCQASQTISSRLAWYQQKPGQPPKLLIYSASTLASGVSSRFKGSGSGTEFTLTISDLESADGATYYCAGYGGLGITAFGGGTEVVVK"
  ELISA [abs. corr.]: "3.29 abs. corr."
- binder: "P018.S.02.A.C06 (antibody, V domains shown, V regions on human Ig constant parts; also called AB27_32) VH: QEQLEESGGGLVQPEGSLTLTCKASGIDFSSNYYISWVRQAPGKGLEWIGCIYTGSDDAAYYASWAKGRFTISKTSSTTVTLQMTSLTAADTATYFCAREILYPTNTDSFDLWGPGTLVTVSS VL: AQVLTQTPSSVSEPVGGIVTINCQASESISSRLAWYQQKPGQPPKLLIYRAATLASGVPSRFKGSGSGTDFTLTISDLESADAATYYCQSYVGASSGGYFFGGGTEVVVK"
  ELISA [abs. corr.]: "3.37 abs. corr."
